Target or test system: ITK (Homo sapiens)
Sequence (Q08881 1-620): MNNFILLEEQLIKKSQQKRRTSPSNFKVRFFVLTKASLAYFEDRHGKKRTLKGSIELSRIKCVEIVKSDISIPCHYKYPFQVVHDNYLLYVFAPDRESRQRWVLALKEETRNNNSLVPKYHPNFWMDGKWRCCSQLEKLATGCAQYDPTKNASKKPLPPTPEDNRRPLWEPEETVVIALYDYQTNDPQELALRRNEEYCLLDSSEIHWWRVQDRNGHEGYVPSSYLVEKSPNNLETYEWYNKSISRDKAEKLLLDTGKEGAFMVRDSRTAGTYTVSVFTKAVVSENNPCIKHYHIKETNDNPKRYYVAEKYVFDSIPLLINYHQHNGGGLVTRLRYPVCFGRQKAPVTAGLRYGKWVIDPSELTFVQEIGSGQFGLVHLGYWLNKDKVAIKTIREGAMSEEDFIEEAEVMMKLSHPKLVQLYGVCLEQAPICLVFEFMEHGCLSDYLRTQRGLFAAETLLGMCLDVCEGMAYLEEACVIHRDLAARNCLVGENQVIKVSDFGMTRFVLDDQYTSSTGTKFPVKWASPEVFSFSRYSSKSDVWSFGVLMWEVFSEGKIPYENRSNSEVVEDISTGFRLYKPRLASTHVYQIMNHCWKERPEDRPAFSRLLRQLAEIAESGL
Method: ITK degradation HiBiT assay
Type: cell-based
Set-up: expressed in transfected cells; host or cells: Molt4 (ATCC CRL-1552), monoclonal clone 1C10, engineered to carry the HiBiT tag
Condition notes: C-terminal HiBiT-tagged Molt4 cells, 4 hrs
Lab note: compare DC50 with 0.003 nM, writing class 1 if less and class 0 if equal or more.

Answered examples (3):
CN(C(=O)CCN1CCN(c2ccc3c(c2)C(=O)N(C2CCC(=O)NC2=O)C3=O)CC1)c1ccc2cc(-c3n[nH]c4c3CCC(C)(C)C4)[nH]c2c1 (centres unmarked) [Compound 2]	class 0
C[C@@]12Cc3[nH]nc(C(=O)Nc4cnn(CC5CN(C[C@H]6CCN(c7ccc8c(c7)C(=O)N(C7CCC(=O)NC7=O)C8=O)C6)C5)c4)c3C[C@@H]1C2(F)F (some centres unmarked) [Compound 44]	class 0
C[C@@]12Cc3[nH]nc(C(=O)Nc4ccc(C5CCN(CC6CCN(c7ccc(C8CCC(=O)NC8=O)cn7)CC6)CC5)nc4)c3C[C@@H]1C2(F)F (some centres unmarked) [Compound 111]	class 0

Now take the following compound into account.
Regarding C[C@@]12Cc3[nH]nc(C(=O)Nc4cnn(C5CCN(CC6CCN(c7ccc(C8CCC(=O)NC8=O)cn7)CC6)CC5)c4)c3C[C@@H]1C2(F)F (mixture of isomers) [Compound 114] , kindly confirm whether its DC50 is beneath 0.003 nM. class 1
